- System: L1210 leukemia ip in BDF1 mice, survival T/C
- measurement-description: NCI In Vivo Anticancer Drug Screen. Data for tumor model L1210 Leukemia (intraperitoneal) in B6D2F1 (BDF1) mice
- condition-details: endpoint: mean survival time; dose: 200.0 mg/kg/injection; schedule: Q01DX001 (ip); vehicle: saline; higher = longer survival
- Experimental: The antitumor activity of compounds was measured in mice bearing transplantable tumors. Survival or tumor size were measured and the results are expressed as the measurement made in the treated group (T) divided by the measurement made in the vehicle treated control group (C). The tumor model used in this assay is L1210 Leukemia (intraperitoneal) in B6D2F1 (BDF1) mice
Inconclusive results and toxic doses are left out.
Documented T/C across a set of compounds

Would you mind telling me what T/C value was observed for CC(=O)[C@H]1CC[C@H]2[C@@H]3C[C@H](C)C4=CC(=O)CC[C@]4(C)[C@H]3[C@@H](O)C[C@]12C ? 104 % of control

Also need CC(C)(CBr)CC(=O)NC1CCCCC1 , thanks. 96 % of control

###

- System: L1210 leukemia ip in BDF1 mice, survival T/C
- measurement-description: NCI In Vivo Anticancer Drug Screen. Data for tumor model L1210 Leukemia (intraperitoneal) in B6D2F1 (BDF1) mice
- condition-details: endpoint: mean survival time; dose: 400.0 mg/kg/injection; schedule: Q01DX001 (ip); vehicle: carboxymethylcellulose (CMC); higher = longer survival
Inconclusive results and toxic doses are left out.
Documented T/C across a set of compounds

Sample answers from the record:
INSERT INTO measurements (compound, target_of_assay, value_measured) VALUES
  ('COC1COC(OC)C(OS(C)(=O)=O)C1OC (stereo not drawn)', 'L1210 leukemia ip in BDF1 mice, survival T/C', '101 % of control'),
  ('CCCCCCCCCCC(C1CCCC2CCCCC21)C1CCCC2CCCCC21 (stereo not drawn)', 'L1210 leukemia ip in BDF1 mice, survival T/C', '94 % of control'),
  ('COc1ccccc1CN1CCCN(Cc2ccccc2OC)C1c1ccc(N(CCCl)CCCl)cc1Cl', 'L1210 leukemia ip in BDF1 mice, survival T/C', '95 % of control'),
  ('COC1C(O)C(CO)OC1n1cnc2c(=S)nc(N)[nH]c21 (stereo not drawn)', 'L1210 leukemia ip in BDF1 mice, survival T/C', '157 % of control'),
  ('CCOC(=O)c1[nH]cnc1/N=N/N(C)C1CCCCC1', 'L1210 leukemia ip in BDF1 mice, survival T/C', '102 % of control');

Would you mind telling me what T/C value was observed for O=C(O)COc1cc(Cl)c(Cl)cc1Cl ? 108 % of control

Also need COc1ccc2nccc(C=O)c2c1 , thanks. 96 % of control

Also need O=[N+]([O-])c1ccc2c(c1)/C(=N\O)c1cc(Cl)ccc1-2 , thanks. 94 % of control

Also need O=c1[nH]c2c(c(=O)[nH]1)OCN(Cc1ccccc1)C2 , thanks. 100 % of control

Also need Nc1[nH]c(=S)[nH]c(=O)c1N=Nc1c(Br)cc(S(N)(=O)=O)cc1Br , thanks. 103 % of control

Also need CCc1ccc(N=Nc2ccc(Br)cc2)cc1 , thanks. 98 % of control

###

- Test system: L1210 leukemia ip in BDF1 mice, survival T/C
- measurement-description: NCI In Vivo Anticancer Drug Screen. Data for tumor model L1210 Leukemia (intraperitoneal) in B6D2F1 (BDF1) mice
- condition-details: endpoint: mean survival time; dose: 400.0 mg/kg/injection; schedule: Q04DX003 (ip); vehicle: Klucel (hydroxypropylcellulose) (HPC); higher = longer survival
Toxic doses and inconclusive results are not listed.
parameter-measured: T/C

Sample answers from the record:
INSERT INTO assay_data (compound, parameter_measured, value_measured) VALUES
  ('CP(=S)(c1ccccc1)P(C)(=S)c1ccccc1 (centres undefined)', 'T/C', '98 % of control'),
  ('C=C1C2CCC(C2)C1(C)CC/C=C(/C)CO (centres undefined) (tested in a mixture with another compound)', 'T/C', '93 % of control'),
  ('CN(Cc1ccccc1)c1cc(=O)[nH]c(=O)[nH]1', 'T/C', '100 % of control'),
  ('NC(CSCc1ccccc1)C(=O)O (centres undefined)', 'T/C', '96 % of control');

Would you mind telling me what T/C value was observed for O=S(=O)(CCCc1ccccc1)c1ccccc1 ? 102 % of control

Also need CCCCCCCCCCCCCCCC(N)=O , thanks. 98 % of control

Also need Fc1ccccc1NC1=NCCO1 , thanks. 92 % of control

Also need Nc1ccc(CCc2nc(N)nc(N)c2-c2ccc(Cl)cc2)cc1 , thanks. 101 % of control

Also need CCCCCCCCCCCCCCCC(=O)Nc1cccc2cnccc12 , thanks. 105 % of control

Also need Cc1cccc(OC(=O)Nc2cccc(Cl)c2)c1C , thanks. 93 % of control

Also need CCCCCCCCC(O)CCCCC (centres undefined) , thanks. 109 % of control

Also need COc1ccc(C(=S)N(CC(C)C)c2ccccc2)cc1 , thanks. 94 % of control

Also need CCCCNC(=O)Nc1ccccc1OCC , thanks. 94 % of control

Also need OCCC/C=C/CCI , thanks. 91 % of control
